- subject_of_test: T1, CD27 expressed on the cell surface (HT1080_CD27 cells) (human, UniProt P26842 20-260)
- T1 construct: whole, on cells; also called K562_CD27
- T1 sequence (looked up): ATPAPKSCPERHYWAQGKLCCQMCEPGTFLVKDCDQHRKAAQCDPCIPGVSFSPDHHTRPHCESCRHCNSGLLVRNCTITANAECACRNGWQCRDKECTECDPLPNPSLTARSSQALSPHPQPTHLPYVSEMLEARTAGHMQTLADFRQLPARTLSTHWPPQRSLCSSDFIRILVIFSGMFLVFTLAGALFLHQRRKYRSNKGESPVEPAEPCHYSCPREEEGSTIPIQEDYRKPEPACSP
- assay_info: cellular binding assay, HT1080_CD27 cells; also: test concentration or dose not given here
Give measured Cellular binding assay [RFU] for each item. Keep answers brief.
Entry rule: numbers only, all in RFU.

P018.S.01.A.F02 (antibody, V domains shown, V regions on human Ig constant parts; also called AB27_19) VH: QQQLVESGGGLVRPGASLTLTCKASGFSFSSGYYVCWVRQAPGKGLEWIACIFAGSGGGAGYATWAKGRFTISKTSSTTVTLQMTSLTAADTATYFCARPLSGYAYGMDLWGPGTLVTVSL VL: DVVMTQTPASVSEPVEGTVTIKCQASQTISNYLAWYQQKPGQPPKLLIYGASTLESGVSSRFKGSGSGTQFTLTIYDLESADAATYYCQCTYDGSSDVGGAFGGGTEVVVK has a reported Cellular binding assay [RFU] of 326

P018.S.02.A.H05 (antibody, V domains shown, V regions on human Ig constant parts; also called AB27_40) VH: QSLEESGGDLVKPGASLTLTCTASGIDFSSSSMCWVRQAPGKGLEWIACIDTGSSGRTDYASWAKGRFTLSKTSATTVTLQMTSLTAADTATYFCTRYGDYAGYGYDSFDPWGPGTLVTVSS VL: AQVLTQTPSSVSAAVGGTVTINCQASQNINNWCSWYQQKPGQPPKLLIAYASTLASGVSSRFKGSGSGTQFTLTISGVQSDDAATYYCQQTFDCTDVENVFGGGTEVVVK has a reported Cellular binding assay [RFU] of 252

P018.S.04.A.D02 (antibody, V domains shown, V regions on human Ig constant parts; also called AB27_71) VH: QSLEESGGRLVTPGTPLTLTCTASGFSLSTYAMGWVRQAPGEGLEWIGNINTDSGDTWYARWAKGRFTISTTSSTTVDLKITSPTIEDTATYFCARNPGDDVNLWGQGTLVTVSS VL: AQVLTQTPSPVSAAVGDTVTINCQASQSVYNNNDLAWFQQKPGQPPKLLIYRTSILASGVPSRFKGSGSGTQFTLTISDLESDDAATYYCQGYYSGVIYVFGGGTEVVVK has a reported Cellular binding assay [RFU] of 335

Provenance of the data: patent US20210253725A1
